System: MPS IIIB fibroblasts
Test: Number of lysosomal structures by electron microscopy, MPS IIIB
Type: cell-based, human
Conditions: 30 μM
OBSERVABLE: Number of structures per 100 μm^2 of cellular cross section ± SD, complexed (per 100 μm^2)
Numbers only, in per 100 μm^2.

Guide cases for Number of structures per 100 μm^2 of cellular cross section ± SD, complexed, answers given:
O=C(Oc1cc(O)c2c(=O)c(-c3ccc(O)cc3)coc2c1)c1ccccc1O	0.06
CCC(=O)OCOc1cc(O)c2c(=O)c(-c3ccc(O)cc3)coc2c1	0.12
CC(=O)Oc1ccc(-c2coc3cc(OC(C)=O)cc(OC(C)=O)c3c2=O)cc1	0.10

Turning to the following molecule.
Entry CCCC[N+](CCCC)(CCCC)CCCC.O=C([O-])CCCC(=O)Oc1cc(O)c2c(=O)c(-c3ccc(O)cc3)coc2c1 , MPS IIIB fibroblasts data, Number of structures per 100 μm^2 of cellular cross section ± SD, complexed value: 0.10
